Relative ALP activity listing for selected compounds.
# Tested on: hMSC-TERT
# measurement context: 10 μM inhibitor in osteogenic inducing media, 6 days after induction, hMSC-TERT
readout name: Relative ALP activity

[[record]]
compound = "Nc1ncc2[nH]cnc2n1"
readout_name = "Relative ALP activity"
measured = 0.6855

[[record]]
compound = "CC(C)(C)n1nc(-c2ccc(Cl)cc2)c2c(N)ncnc21"
readout_name = "Relative ALP activity"
measured = 0.4269

[[record]]
compound = "N#C/C(=C\\c1ccc(O)c(O)c1)C(N)=O"
readout_name = "Relative ALP activity"
measured = 0.9029

[[record]]
compound = "COc1cc(/C=C(\\C#N)C(N)=O)cc(CSc2nc3ccccc3s2)c1O"
readout_name = "Relative ALP activity"
measured = 1.056

[[record]]
compound = "Cc1cc2ncc(-c3ccccc3)nc2cc1C"
readout_name = "Relative ALP activity"
measured = 0.3556

[[record]]
compound = "COC(=O)/C=C/c1cc(O)ccc1O"
readout_name = "Relative ALP activity"
measured = 0.7022

[[record]]
compound = "N#CC(C#N)=Cc1cc(O)c(O)c(O)c1"
readout_name = "Relative ALP activity"
measured = 0.8233

[[record]]
compound = "Cn1cnc2c(NCc3ccccc3)nc(NCCO)nc21"
readout_name = "Relative ALP activity"
measured = 0.5408

[[record]]
compound = "O=P(O)(O)C(O)c1ccc2ccccc2c1 (stereo not drawn)"
readout_name = "Relative ALP activity"
measured = 0.8557

[[record]]
compound = "N#C/C(=C\\c1cc(Cl)cc(Cl)c1)c1cccnc1"
readout_name = "Relative ALP activity"
measured = 1.024

[[record]]
compound = "N#C/C(=C\\c1ccc(O)c(O)c1)C(N)=S"
readout_name = "Relative ALP activity"
measured = 1.005

[[record]]
compound = "CNCCNS(=O)(=O)c1cccc2cnccc12"
readout_name = "Relative ALP activity"
measured = 1.87

[[record]]
compound = "CC(C)c1cc(/C=C(\\C#N)C(=O)NCCCc2ccccc2)cc(C(C)C)c1O"
readout_name = "Relative ALP activity"
measured = 0.7853

[[record]]
compound = "O=c1c(-c2ccc(O)cc2)coc2cc(O)cc(O)c12"
readout_name = "Relative ALP activity"
measured = 0.7692

[[record]]
compound = "O=c1cc(-c2ccc(O)cc2)oc2cc(O)cc(O)c12"
readout_name = "Relative ALP activity"
measured = 0.4027

[[record]]
compound = "COc1ccc(S(=O)(=O)N(CCO)c2ccccc2CN(C)C/C=C/c2ccc(Cl)cc2)cc1"
readout_name = "Relative ALP activity"
measured = 0.6802

[[record]]
compound = "O.O.O=c1c(O)c(-c2ccc(O)c(O)c2)oc2cc(O)cc(O)c12 [Quercetin dihydrate]"
readout_name = "Relative ALP activity"
measured = 0.8354

[[record]]
compound = "CC1=C(O)C(=O)[C@@H]2O[C@@H]2C1=O"
readout_name = "Relative ALP activity"
measured = 0.338


###

# System: hMSC-TERT
# measurement context: 1 μM inhibitor in osteogenic inducing media, 6 days after induction, hMSC-TERT
readout name: Relative ALP activity

[[record]]
compound = "Cc1cc2ncc(-c3ccccc3)nc2cc1C [Tyrphostin AG 1295]"
measured = 1.007

[[record]]
compound = "Cc1ccc(-c2nn(C(C)(C)C)c3ncnc(N)c23)cc1 [PP1]"
measured = 0.9626

[[record]]
compound = "C/C(O)=C(\\C#N)C(=O)Nc1cc(Br)ccc1Br [LFM-A13]"
measured = 0.7381

[[record]]
compound = "O=S(=O)(c1cccc2c(Cl)cccc12)N1CCCNCC1 [ML-9]"
measured = 0.9822

[[record]]
compound = "C[S+]([O-])c1ccc(-c2nc(-c3ccc(F)cc3)c(-c3ccncc3)[nH]2)cc1 (centres unmarked) [SB-203580]"
measured = 0.824

[[record]]
compound = "O=c1cc(N2CCOCC2)oc2c(-c3ccccc3)cccc12 [LY 294002]"
measured = 0.8628

[[record]]
compound = "O=S(=O)(NCCNC/C=C/c1ccc(Br)cc1)c1cccc2cnccc12 [H-89]"
measured = 0.8924

[[record]]
compound = "Cn1cnc2nc(NCCO)nc(NCc3ccccc3)c21 [iso-Olomoucine]"
measured = 1.084

[[record]]
compound = "N#C/C(=C\\c1cc(Cl)cc(Cl)c1)c1cccnc1 [RG-14620]"
measured = 0.8302

[[record]]
compound = "N#CC(C#N)=C(N)/C(C#N)=C/c1cc(O)c(O)c(O)c1 [Tyrphostin 51]"
measured = 0.8997

[[record]]
compound = "CN([C@@H](Cc1ccc(OS(=O)(=O)c2cccc3cnccc23)cc1)C(=O)N1CCN(c2ccccc2)CC1)S(=O)(=O)c1cccc2cnccc12 [KN-62]"
measured = 0.956

[[record]]
compound = "N#CC(C#N)=Cc1cc(O)c(O)c([N+](=O)[O-])c1 [Tyrphostin AG 1288]"
measured = 0.8684

[[record]]
compound = "O=C(O)c1cc(N(Cc2ccccc2O)Cc2cc(O)ccc2O)ccc1O [Lavendustin A]"
measured = 0.8641

[[record]]
compound = "N#CC(C#N)=Cc1ccc(O)c(O)c1 [Tyrphostin 23]"
measured = 0.9904

[[record]]
compound = "O=c1c(-c2ccc(O)cc2)coc2cc(O)ccc12 [Daidzein]"
measured = 1.14

[[record]]
compound = "CC1=C(O)C(=O)[C@@H]2O[C@@H]2C1=O [Terreic acid]"
measured = 0.2721

[[record]]
compound = "CC(=O)c1c(O)c(C)c(O)c(Cc2c(O)c3c(c(C(=O)/C=C/c4ccccc4)c2O)OC(C)(C)C=C3)c1O [Rottlerin]"
measured = 0.3874

